Record form. Attribute: % Peptide Exchange. Fill in for each entry.
tested.system: HLA-A*02:01 (Homo sapiens, UniProt P04439, D140Y/D185E/D98H/E176V/E277Q/G131W/G231S/I119V/I121R/I166T/I218V/L300P/L318F/N151K/N90K/P208A/P217A/Q86G/Q94H/R138H/R169H/T345S)
protocol.description: QuickSwitch Quant HLA-A*02:01 Tetramer control peptide exchange
Answers are plain numbers, in %.

Worked examples, 5 sequences total:
record.sequence	reported.result
YIDIGNYTV	97.94
VMAYITGGVV	99.07
VMVELVAEL	98.63
SLPGVFCGV	98.00
AMDEFIERYKL	96.89

Kindly consider the entry below.
# sequence `VLYQDVNCTEV` ; its % Peptide Exchange = 97.92
